Taken from a melting point compilation (Tetko et al.; mined from patent text by program, amines drawn as free bases though some values may be those of a salt).

Exercise: state measured melting point for each of the compounds provided.

>  <Compound>
Cc1ccc(N2CCN([C@@H](Cc3ccc(OCCc4nc(-c5ccccc5)oc4C)c(Br)c3)C(=O)O)CC2)cc1

>  <melting point>
203 to 205 °C

$$$$

Take each entry in turn and give its melting point.
1. CCOC(=O)C1C(=O)CC(C)(O)C(C(=O)OCC)C1c1cc(OC)c2oc(C)c(C)c2c1 (stereo not given)
2. CCCCCS(=O)(=O)NC(=O)CCc1ccc(OCCOC)cc1Oc1ccccc1
3. Oc1ccc2cc(-c3csc(-c4ccccc4)n3)ccc2c1Br
4. CCOC(=O)C(Cl)=NNc1ccc(Cl)cc1

// result
157 to 158 °C
70.4 to 70.5 °C
176 to 183 °C
145 to 148 °C
